A collection of compounds and their measured concentration at 8 h
experiment: Fecal excretion study in rats after oral NS, SF or CNS (LC–MS/MS); type: in vivo; conditions: male, Sprague Dawley; rat feces, oral NS 60 mg/kg, 8 h
Give the quantity in ng/mL, number only.

// CC(C)=CCC[C@](C)(O[C@@H]1O[C@H](CO)[C@@H](O)[C@H](O)[C@H]1O)[C@H]1CC[C@]2(C)[C@@H]1[C@H](O)C[C@@H]1[C@@]3(C)CC[C@H](O[C@@H]4O[C@H](CO)[C@@H](O)[C@H](O)[C@H]4O[C@@H]4O[C@H](CO)[C@@H](O)[C@H](O)[C@H]4O)C(C)(C)[C@@H]3CC[C@]12C [ginsenoside Rd] : concentration at 8 h value = 605

// CC(C)=CCC[C@](C)(O[C@@H]1O[C@H](CO[C@@H]2O[C@H](CO)[C@@H](O)[C@H](O)[C@H]2O)[C@@H](O)[C@H](O)[C@H]1O)[C@H]1CC[C@]2(C)[C@@H]1[C@H](O)C[C@@H]1[C@@]3(C)CC[C@H](O[C@@H]4O[C@H](CO)[C@@H](O)[C@H](O)[C@H]4O[C@@H]4O[C@H](CO)[C@@H](O)[C@H](O)[C@H]4O)C(C)(C)[C@@H]3CC[C@]12C [ginsenoside Rb1] : concentration at 8 h value = 767

// CC(C)=CCC[C@](C)(O[C@@H]1O[C@H](CO)[C@@H](O)[C@H](O)[C@H]1O)[C@H]1CC[C@]2(C)[C@@H]1[C@H](O)C[C@@H]1[C@@]3(C)CC[C@H](O)C(C)(C)[C@@H]3[C@@H](O[C@@H]3O[C@H](CO)[C@@H](O)[C@H](O)[C@H]3O[C@@H]3O[C@@H](C)[C@H](O)[C@@H](O)[C@H]3O)C[C@]12C [ginsenoside Re] : concentration at 8 h value = 455

// CC(C)=CCC[C@](C)(O[C@@H]1O[C@H](CO)[C@@H](O)[C@H](O)[C@H]1O)[C@H]1CC[C@]2(C)[C@@H]1[C@H](O)C[C@@H]1[C@@]3(C)CC[C@H](O)C(C)(C)[C@@H]3[C@@H](O[C@@H]3O[C@H](CO)[C@@H](O)[C@H](O)[C@H]3O)C[C@]12C [ginsenoside Rg1] : concentration at 8 h value = 473

====

assay: Fecal excretion study in rats after oral NS, SF or CNS (LC–MS/MS); format: in vivo; conditions: male, Sprague Dawley; rat feces, oral NS 60 mg/kg, 120 h
recorded_metric: concentration at 120 h (ng/mL)
Give the quantity in ng/mL, number only.

// CC(C)=CCC[C@](C)(O[C@@H]1O[C@H](CO)[C@@H](O)[C@H](O)[C@H]1O)[C@H]1CC[C@]2(C)[C@@H]1[C@H](O)C[C@@H]1[C@@]3(C)CC[C@H](O)C(C)(C)[C@@H]3[C@@H](O[C@@H]3O[C@H](CO)[C@@H](O)[C@H](O)[C@H]3O[C@@H]3O[C@@H](C)[C@H](O)[C@@H](O)[C@H]3O)C[C@]12C [ginsenoside Re] : concentration at 120 h value = 17

// CC(C)=CCC[C@](C)(O[C@@H]1O[C@H](CO)[C@@H](O)[C@H](O)[C@H]1O)[C@H]1CC[C@]2(C)[C@@H]1[C@H](O)C[C@@H]1[C@@]3(C)CC[C@H](O)C(C)(C)[C@@H]3[C@@H](O[C@@H]3O[C@H](CO)[C@@H](O)[C@H](O)[C@H]3O)C[C@]12C [ginsenoside Rg1] : concentration at 120 h value = 22

// CC(C)=CCC[C@](C)(O[C@@H]1O[C@H](CO)[C@@H](O)[C@H](O)[C@H]1O)[C@H]1CC[C@]2(C)[C@@H]1[C@H](O)C[C@@H]1[C@@]3(C)CC[C@H](O[C@@H]4O[C@H](CO)[C@@H](O)[C@H](O)[C@H]4O[C@@H]4O[C@H](CO)[C@@H](O)[C@H](O)[C@H]4O)C(C)(C)[C@@H]3CC[C@]12C [ginsenoside Rd] : concentration at 120 h value = 15

Consider now this further molecule.
// CC(C)=CCC[C@](C)(O[C@@H]1O[C@H](CO[C@@H]2O[C@H](CO)[C@@H](O)[C@H](O)[C@H]2O)[C@@H](O)[C@H](O)[C@H]1O)[C@H]1CC[C@]2(C)[C@@H]1[C@H](O)C[C@@H]1[C@@]3(C)CC[C@H](O[C@@H]4O[C@H](CO)[C@@H](O)[C@H](O)[C@H]4O[C@@H]4O[C@H](CO)[C@@H](O)[C@H](O)[C@H]4O)C(C)(C)[C@@H]3CC[C@]12C [ginsenoside Rb1] : concentration at 120 h value = 17

====

experiment: Fecal excretion study in rats after oral NS, SF or CNS (LC–MS/MS); type: in vivo; conditions: rat feces, oral NS 60 mg/kg, 8 h
recorded_metric: Accumulative excretion amount (µg)
Give the quantity in µg, number only.

Check out these entries, answers already filled in.
// CC(C)=CCC[C@](C)(O[C@@H]1O[C@H](CO[C@@H]2O[C@H](CO)[C@@H](O)[C@H](O)[C@H]2O)[C@@H](O)[C@H](O)[C@H]1O)[C@H]1CC[C@]2(C)[C@@H]1[C@H](O)C[C@@H]1[C@@]3(C)CC[C@H](O[C@@H]4O[C@H](CO)[C@@H](O)[C@H](O)[C@H]4O[C@@H]4O[C@H](CO)[C@@H](O)[C@H](O)[C@H]4O)C(C)(C)[C@@H]3CC[C@]12C [ginsenoside Rb1] : Accumulative excretion amount value = 26.423

// CC(C)=CCC[C@](C)(O[C@@H]1O[C@H](CO)[C@@H](O)[C@H](O)[C@H]1O)[C@H]1CC[C@]2(C)[C@@H]1[C@H](O)C[C@@H]1[C@@]3(C)CC[C@H](O)C(C)(C)[C@@H]3[C@@H](O[C@@H]3O[C@H](CO)[C@@H](O)[C@H](O)[C@H]3O[C@@H]3O[C@@H](C)[C@H](O)[C@@H](O)[C@H]3O)C[C@]12C [ginsenoside Re] : Accumulative excretion amount value = 11.148

// CC(C)=CCC[C@](C)(O[C@@H]1O[C@H](CO)[C@@H](O)[C@H](O)[C@H]1O)[C@H]1CC[C@]2(C)[C@@H]1[C@H](O)C[C@@H]1[C@@]3(C)CC[C@H](O[C@@H]4O[C@H](CO)[C@@H](O)[C@H](O)[C@H]4O[C@@H]4O[C@H](CO)[C@@H](O)[C@H](O)[C@H]4O)C(C)(C)[C@@H]3CC[C@]12C [ginsenoside Rd] : Accumulative excretion amount value = 19.476

Consider now this further molecule.
// CC(C)=CCC[C@](C)(O[C@@H]1O[C@H](CO)[C@@H](O)[C@H](O)[C@H]1O)[C@H]1CC[C@]2(C)[C@@H]1[C@H](O)C[C@@H]1[C@@]3(C)CC[C@H](O)C(C)(C)[C@@H]3[C@@H](O[C@@H]3O[C@H](CO)[C@@H](O)[C@H](O)[C@H]3O)C[C@]12C [ginsenoside Rg1] : Accumulative excretion amount value = 27.855

====

A collection of compounds and their measured Accumulative excretion amount
test: Fecal excretion study in rats after oral NS, SF or CNS (LC–MS/MS); format: in vivo; conditions: rat feces, oral CNS 110 mg/kg, 4 h
Give the quantity in µg, number only.

// CC(C)=CCC[C@](C)(O[C@@H]1O[C@H](CO)[C@@H](O)[C@H](O)[C@H]1O)[C@H]1CC[C@]2(C)[C@@H]1[C@H](O)C[C@@H]1[C@@]3(C)CC[C@H](O)C(C)(C)[C@@H]3[C@@H](O[C@@H]3O[C@H](CO)[C@@H](O)[C@H](O)[C@H]3O[C@@H]3O[C@@H](C)[C@H](O)[C@@H](O)[C@H]3O)C[C@]12C [ginsenoside Re] : Accumulative excretion amount value = 1.098

// CC(C)=CCC[C@](C)(O[C@@H]1O[C@H](CO)[C@@H](O)[C@H](O)[C@H]1O)[C@H]1CC[C@]2(C)[C@@H]1[C@H](O)C[C@@H]1[C@@]3(C)CC[C@H](O[C@@H]4O[C@H](CO)[C@@H](O)[C@H](O)[C@H]4O[C@@H]4O[C@H](CO)[C@@H](O)[C@H](O)[C@H]4O)C(C)(C)[C@@H]3CC[C@]12C [ginsenoside Rd] : Accumulative excretion amount value = 2.579

Consider now this further compound.
// CC(C)=CCC[C@](C)(O[C@@H]1O[C@H](CO)[C@@H](O)[C@H](O)[C@H]1O)[C@H]1CC[C@]2(C)[C@@H]1[C@H](O)C[C@@H]1[C@@]3(C)CC[C@H](O)C(C)(C)[C@@H]3[C@@H](O[C@@H]3O[C@H](CO)[C@@H](O)[C@H](O)[C@H]3O)C[C@]12C [ginsenoside Rg1] : Accumulative excretion amount value = 14.286
